Reported pIC50 is given for each of the following molecules.
Target: FGFR3 enzyme (Homo sapiens (Human))
Assay: FGFR Enzymatic Assay (FRET peptide phosphorylation), FGFR3
Format: biochemical
Details: pre-incubated for 5 to 10 minutes; read-out: FGFR3 IC50
pIC50: −log10 of the molar value.

[
  {
    "Smiles structure": "COc1cc(OC)c(F)c(N2Cc3cnc(-c4ccn(C)n4)cc3N(c3ccc(C#N)cc3)C2=O)c1F",
    "pIC50": "7.52 to 8.00"
  },
  {
    "Smiles structure": "COc1cc(OC)c(F)c(N2Cc3cnc(-c4cncc(C#N)c4)cc3C3(CC3)C2=O)c1F",
    "pIC50": "6.70 to 7.52"
  },
  {
    "Smiles structure": "CCN1C(=O)N(c2c(F)c(OC)cc(OC)c2F)Cc2cnc(-c3ccn(C)n3)cc21",
    "pIC50": "> 8.00"
  },
  {
    "Smiles structure": "COc1cc(OC)c(F)c(N2Cc3cnc(-c4cn(C)nc4C)cc3N(Cc3cnn(CC(F)F)c3)C2=O)c1F",
    "pIC50": "> 8.00"
  },
  {
    "Smiles structure": "CCNC(=O)c1ccc(-c2cc3c(cn2)CN(c2c(F)c(OC)cc(OC)c2F)C(=O)N3CC)cn1",
    "pIC50": "> 8.00"
  },
  {
    "Smiles structure": "COc1cc(OC)c(F)c(N2Cc3cnc(-c4cncc(NS(C)(=O)=O)c4)cc3C3(CC3)C2=O)c1F",
    "pIC50": "6.70 to 7.52"
  },
  {
    "Smiles structure": "COc1cc(OC)c(F)c(N2Cc3cnc(-c4cncc(N)c4)cc3C3(CC3)C2=O)c1F",
    "pIC50": "7.52 to 8.00"
  },
  {
    "Smiles structure": "COc1cc(OC)c(F)c(N2Cc3cnc(-c4ccc(C5(C#N)CCC5)nc4)cc3N(C3CCC3)C2=O)c1F",
    "pIC50": "7.52 to 8.00"
  }
]

---

Quick list: FGFR4/FGFR3 IC50 ratio per entry.
Target: FGFR3 enzyme (Homo sapiens (Human), UniProt P22607)
Sequence (P22607 23-806): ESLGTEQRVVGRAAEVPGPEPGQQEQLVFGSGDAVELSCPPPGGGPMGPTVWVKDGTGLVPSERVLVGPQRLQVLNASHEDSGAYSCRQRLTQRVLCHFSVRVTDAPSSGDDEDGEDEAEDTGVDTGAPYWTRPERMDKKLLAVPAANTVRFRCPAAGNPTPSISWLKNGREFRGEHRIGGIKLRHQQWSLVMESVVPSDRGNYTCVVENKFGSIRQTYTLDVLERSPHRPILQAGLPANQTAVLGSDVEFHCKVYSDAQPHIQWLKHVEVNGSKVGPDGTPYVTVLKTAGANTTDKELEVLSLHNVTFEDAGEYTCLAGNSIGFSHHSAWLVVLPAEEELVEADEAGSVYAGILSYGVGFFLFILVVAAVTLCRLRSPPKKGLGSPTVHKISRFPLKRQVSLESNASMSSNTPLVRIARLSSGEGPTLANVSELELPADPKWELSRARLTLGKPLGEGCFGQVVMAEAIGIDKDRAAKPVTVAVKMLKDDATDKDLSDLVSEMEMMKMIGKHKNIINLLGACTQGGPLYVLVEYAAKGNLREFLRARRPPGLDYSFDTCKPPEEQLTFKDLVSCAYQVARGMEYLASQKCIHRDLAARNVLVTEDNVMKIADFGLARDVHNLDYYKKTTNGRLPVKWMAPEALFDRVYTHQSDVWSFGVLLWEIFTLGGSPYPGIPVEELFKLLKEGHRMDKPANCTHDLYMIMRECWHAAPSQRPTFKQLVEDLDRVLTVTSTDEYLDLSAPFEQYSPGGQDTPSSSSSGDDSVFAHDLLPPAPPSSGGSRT
Test: FGFR Enzymatic Assay (FRET peptide phosphorylation), FGFR3
Assay type: biochemical
Conditions: FGFR3 selectivity; pre-incubated for 4 hours

[
  {
    "Smiles structure": "COc1cccc(N2C(=O)N(c3c(F)c(OC)cc(OC)c3F)Cc3cnc(-c4cn(C)nc4C)cc32)c1",
    "Assayed system": "FGFR3 enzyme (Homo sapiens (Human), UniProt P22607)",
    "FGFR4/FGFR3 IC50 ratio": ">10"
  },
  {
    "Smiles structure": "CCN1C(=O)N(c2c(F)c(OC)cc(OC)c2F)Cc2cnc(-c3cn(CC(=O)N4CCOCC4)nc3C)cc21",
    "Assayed system": "FGFR3 enzyme (Homo sapiens (Human), UniProt P22607)",
    "FGFR4/FGFR3 IC50 ratio": ">1"
  },
  {
    "Smiles structure": "COc1cc(N2C(=O)N(c3c(F)c(OC)cc(OC)c3F)Cc3cnc(-c4cn(C)nc4C)cc32)ccc1C#N",
    "Assayed system": "FGFR3 enzyme (Homo sapiens (Human), UniProt P22607)",
    "FGFR4/FGFR3 IC50 ratio": ">10"
  },
  {
    "Smiles structure": "COc1cc(OC)c(F)c(N2Cc3cnc(-c4cn(C)nc4C)cc3N(Cc3cnccn3)C2=O)c1F",
    "Assayed system": "FGFR3 enzyme (Homo sapiens (Human), UniProt P22607)",
    "FGFR4/FGFR3 IC50 ratio": ">10"
  },
  {
    "Smiles structure": "COc1cc(OC)c(F)c(N2Cc3cnc(-c4cn(Cc5cccnc5)nc4C)cc3C3(CC3)C2=O)c1F",
    "Assayed system": "FGFR3 enzyme (Homo sapiens (Human), UniProt P22607)",
    "FGFR4/FGFR3 IC50 ratio": ">1"
  },
  {
    "Smiles structure": "CCN1C(=O)N(c2c(F)c(OC)cc(OC)c2F)Cc2cnc(-c3cn(CCN4CCOCC4)nc3C)cc21",
    "Assayed system": "FGFR3 enzyme (Homo sapiens (Human), UniProt P22607)",
    "FGFR4/FGFR3 IC50 ratio": ">1"
  },
  {
    "Smiles structure": "CCc1cnc(N2C(=O)N(c3c(F)c(OC)cc(OC)c3F)Cc3cnc(-c4cn(C)nc4C)cc32)cn1",
    "Assayed system": "FGFR3 enzyme (Homo sapiens (Human), UniProt P22607)",
    "FGFR4/FGFR3 IC50 ratio": ">5"
  }
]
